Molecular target: homoserine transsuccinylase
Test: Homoserine transsuccinylase activity test (Lee et al.), 5,5'-dithiobis(2-nitrobenzoic acid), absorption at 412 nm, with and without SAM
Assay type: biochemical, E. coli
Settings: SAM (Cl salt, Sigma) as inhibitor
Method: In order to determine the sensitivity of the activity of the different homoserine transsuccinylases to SAM, it is possible, for example, to carry out an activity test as described in Lee L. W. et al., J. Biol. Chem. 241, 5479-5480 (1966). […] The absorption is determined photometrically at 412 nm. […] The influence of SAM on the activities of the different homoserine transsuccinylases was determined by quantifying the activity in the presence of different concentrations of SAM (Cl salt, Sigma). […]
Answer each item with its documented pKi.
In textbook form, pKi equals minus log to base ten of the concentration in mol/L.

Asked: What value of pKi has been recorded for this entry: pSLmetAY: MetA variant with Tyr instead of Asp at position 101 (protein, UniProt P07623 2-309, looked up, variant D101Y) Homoserine …: PIRVPDELPAVNFLREENVFVMTTSRASGQEIRPLKVLILNLMPKKIETENQFLRLLSNSPLQVDIQLLRIDSRESRNTPAEHLNNFYCNFEDIQDQNFYGLIVTGAPLGLVEFNDVAYWPQIKQVLEWSKDHVTSTLFVCWAVQAALNILYGIPKQTRTEKLSGVYEHHILHPHALLTRGFDDSFLAPHSRYADFPAALIRDYTDLEILAETEEGDAYLFASKDKRIAFVTGHPEYDAQTLAQEFFRDVEAGLDPDVPYNYFPHNDPQNTPRASWRSHGNLLFTNWLNYYVYQITPYDLRHMNPTLD
Given back: 1.85

Asked: What value of pKi has been recorded for this entry: pSLmetAC: MetA variant with Cys instead of Asp at position 101 (protein, UniProt P07623 2-309, looked up, variant D101C) Homoserine …: PIRVPDELPAVNFLREENVFVMTTSRASGQEIRPLKVLILNLMPKKIETENQFLRLLSNSPLQVDIQLLRIDSRESRNTPAEHLNNFYCNFEDIQDQNFCGLIVTGAPLGLVEFNDVAYWPQIKQVLEWSKDHVTSTLFVCWAVQAALNILYGIPKQTRTEKLSGVYEHHILHPHALLTRGFDDSFLAPHSRYADFPAALIRDYTDLEILAETEEGDAYLFASKDKRIAFVTGHPEYDAQTLAQEFFRDVEAGLDPDVPYNYFPHNDPQNTPRASWRSHGNLLFTNWLNYYVYQITPYDLRHMNPTLD
Given back: 2.15

Asked: What value of pKi has been recorded for this entry: pSLmetAS: MetA variant with Ser instead of Asp at position 101 (protein, UniProt P07623 2-309, looked up, variant D101S) Homoserine …: PIRVPDELPAVNFLREENVFVMTTSRASGQEIRPLKVLILNLMPKKIETENQFLRLLSNSPLQVDIQLLRIDSRESRNTPAEHLNNFYCNFEDIQDQNFSGLIVTGAPLGLVEFNDVAYWPQIKQVLEWSKDHVTSTLFVCWAVQAALNILYGIPKQTRTEKLSGVYEHHILHPHALLTRGFDDSFLAPHSRYADFPAALIRDYTDLEILAETEEGDAYLFASKDKRIAFVTGHPEYDAQTLAQEFFRDVEAGLDPDVPYNYFPHNDPQNTPRASWRSHGNLLFTNWLNYYVYQITPYDLRHMNPTLD
Given back: 2.00

Asked: What value of pKi has been recorded for this entry: pSLmetAI: MetA variant with Ile instead of Asp at position 101 (protein, UniProt P07623 2-309, looked up, variant D101I) Homoserine …: PIRVPDELPAVNFLREENVFVMTTSRASGQEIRPLKVLILNLMPKKIETENQFLRLLSNSPLQVDIQLLRIDSRESRNTPAEHLNNFYCNFEDIQDQNFIGLIVTGAPLGLVEFNDVAYWPQIKQVLEWSKDHVTSTLFVCWAVQAALNILYGIPKQTRTEKLSGVYEHHILHPHALLTRGFDDSFLAPHSRYADFPAALIRDYTDLEILAETEEGDAYLFASKDKRIAFVTGHPEYDAQTLAQEFFRDVEAGLDPDVPYNYFPHNDPQNTPRASWRSHGNLLFTNWLNYYVYQITPYDLRHMNPTLD
Given back: 1.92

Asked: What value of pKi has been recorded for this entry: pSLmetAA: MetA variant with Ala instead of Asp at position 101 (protein, UniProt P07623 2-309, looked up, variant D101A) Homoserine …: PIRVPDELPAVNFLREENVFVMTTSRASGQEIRPLKVLILNLMPKKIETENQFLRLLSNSPLQVDIQLLRIDSRESRNTPAEHLNNFYCNFEDIQDQNFAGLIVTGAPLGLVEFNDVAYWPQIKQVLEWSKDHVTSTLFVCWAVQAALNILYGIPKQTRTEKLSGVYEHHILHPHALLTRGFDDSFLAPHSRYADFPAALIRDYTDLEILAETEEGDAYLFASKDKRIAFVTGHPEYDAQTLAQEFFRDVEAGLDPDVPYNYFPHNDPQNTPRASWRSHGNLLFTNWLNYYVYQITPYDLRHMNPTLD
Given back: 2.10

Asked: What value of pKi has been recorded for this entry: pSLmetAH: MetA variant with His instead of Asp at position 101 (protein, UniProt P07623 2-309, looked up, variant D101H) Homoserine …: PIRVPDELPAVNFLREENVFVMTTSRASGQEIRPLKVLILNLMPKKIETENQFLRLLSNSPLQVDIQLLRIDSRESRNTPAEHLNNFYCNFEDIQDQNFHGLIVTGAPLGLVEFNDVAYWPQIKQVLEWSKDHVTSTLFVCWAVQAALNILYGIPKQTRTEKLSGVYEHHILHPHALLTRGFDDSFLAPHSRYADFPAALIRDYTDLEILAETEEGDAYLFASKDKRIAFVTGHPEYDAQTLAQEFFRDVEAGLDPDVPYNYFPHNDPQNTPRASWRSHGNLLFTNWLNYYVYQITPYDLRHMNPTLD
Given back: 1.80
